Tested on: CD2F1 mice, L1210 leukemia ip, survival T/C
Assay: NCI In Vivo Anticancer Drug Screen. Data for tumor model L1210 Leukemia (intraperitoneal) in CD2F1 (CDF1) mice
Conditions: endpoint: mean survival time; dose: 200.0 mg/kg/injection; schedule: Q01DX009 (ip); vehicle: acetone; higher = longer survival
Toxic doses and inconclusive results are not listed.
Each entry below carries its reported T/C.

Data request, read-out T/C, for CCCCCCC(C)OC(=O)CCCc1ccc(N(CCCl)CCCl)cc1 (centres undefined) 104 % of control

Query: T/C; subject: NC(N)=NCCCCC(N)C(=O)O (centres undefined) 96 % of control

Can you share its T/C? I mean this molecule: O=[N+]([O-])c1ccc(/C=C/C=C\c2cccc(S(=O)(=O)F)c2)c(Cl)c1 104 % of control

Value lookup for T/C; key = O=[N+]([O-])c1ccc(Cl)c(CNc2ncnc3c2ncn3C2CCCCO2)c1 (centres undefined) 97 % of control

----------
System: CD2F1 mice, L1210 leukemia ip, survival T/C
Assay: NCI In Vivo Anticancer Drug Screen. Data for tumor model L1210 Leukemia (intraperitoneal) in CD2F1 (CDF1) mice
Settings: endpoint: mean survival time; dose: 400.0 mg/kg/injection; schedule: Q01DX009 (ip); vehicle: other; higher = longer survival
Inconclusive results and toxic doses are left out.
recorded.metric: T/C

Check out these entries, answers already filled in.
[
  {
    "compound": "CCCCCCCCCCCSSCCCCCCCCCCC",
    "target.under.test": "CD2F1 mice, L1210 leukemia ip, survival T/C",
    "T/C": "111 % of control"
  },
  {
    "compound": "O=C1CSc2nc3ccccc3n21",
    "target.under.test": "CD2F1 mice, L1210 leukemia ip, survival T/C",
    "T/C": "105 % of control"
  },
  {
    "compound": "O=C(CC(O)(C(F)(F)F)C(F)(F)F)c1ccc(Br)cc1",
    "target.under.test": "CD2F1 mice, L1210 leukemia ip, survival T/C",
    "T/C": "95 % of control"
  }
]

Then there is this compound:
# T/C lookup, item CN(C)C=NC1=NN(C)c2ncnc3c2c1cn3C1OC(CO)C(O)C1O (centres undefined) 115 % of control

----------
Tested on: CD2F1 mice, L1210 leukemia ip, survival T/C
Experiment: NCI In Vivo Anticancer Drug Screen. Data for tumor model L1210 Leukemia (intraperitoneal) in CD2F1 (CDF1) mice
Conditions: endpoint: mean survival time; dose: 200.0 mg/kg/injection; schedule: Q04DX002 (ip); vehicle: saline with Tween-80; higher = longer survival
Toxic doses and inconclusive results are not listed.
recorded.metric: T/C

A selection of reference data follows.
[
  {
    "molecule": "CN(C)C(=O)C(Cc1c[nH]c2ccccc12)NC(=O)c1ccccc1 (stereo not drawn)",
    "target.under.test": "CD2F1 mice, L1210 leukemia ip, survival T/C",
    "T/C": "103 % of control"
  },
  {
    "molecule": "CC1=C(C2=C(C)C([N+](=O)[O-])(C(C)(C)C)C=C(C(C)(C)C)C2=O)C(=O)C(C(C)(C)C)=CC1([N+](=O)[O-])C(C)(C)C (stereo not drawn)",
    "target.under.test": "CD2F1 mice, L1210 leukemia ip, survival T/C",
    "T/C": "94 % of control"
  }
]

Continue with the next molecule.
For the molecule CCCCCCCCCCOc1ccc(Cl)cc1Cl , what T/C is on record? 101 % of control

----------
Entries annotated with measured T/C
Tested on: CD2F1 mice, L1210 leukemia ip, survival T/C
Test: NCI In Vivo Anticancer Drug Screen. Data for tumor model L1210 Leukemia (intraperitoneal) in CD2F1 (CDF1) mice
Details: endpoint: mean survival time; dose: 12.5 mg/kg/injection; schedule: Q01DX005 (ip); vehicle: distilled water + Tween-80; higher = longer survival
Toxic doses and inconclusive results are not listed.

[
  {
    "compound": "Cn1c(=O)c2c(nc(Br)n2CC(O)CF)n(C)c1=O (stereo not drawn)",
    "result": "101 % of control"
  },
  {
    "compound": "CCOC(=O)CCCSc1nn(C2OC(COC(=O)c3ccccc3)C(OC(=O)c3ccccc3)C2OC(=O)c2ccccc2)c(=O)[nH]c1=O (stereo not drawn)",
    "result": "93 % of control"
  },
  {
    "compound": "Cc1cn(C2CC(O)C(COP(N)(N)=O)O2)c(=O)[nH]c1=O (stereo not drawn)",
    "result": "98 % of control"
  },
  {
    "compound": "O.O.O.O.[Fe].[Fe].[Fe].[NH-]c1c(C(=O)O)ncn1C1[OH+]C(CO)C(O)C1O.[NH-]c1c(C(=O)O)ncn1C1[OH+]C(CO)C(O)C1O (stereo not drawn)",
    "result": "94 % of control"
  },
  {
    "compound": "Cc1nc(=O)cnn1C1OC(CO)C(O)C1O (stereo not drawn)",
    "result": "102 % of control"
  }
]

Bench note: what T/C did Nc1cc2c(nnn2C2OC(CO)C(O)C2O)c(=O)[nH]1 (stereo not drawn) show? 98 % of control

Name the reported T/C value associated with the compound Cn1c(=O)c2c(ncn2CCNCC(O)c2cc(C(C)(C)C)c(O)c(C(C)(C)C)c2)n(C)c1=O (stereo not drawn) 100 % of control

Would you kindly share the measured T/C for Nc1ncnc2c1ncn2C1OC(C(N)C(=O)O)C(O)C1O (stereo not drawn) ? 96 % of control

----------
The entries below come with measured T/C values attached.
System: CD2F1 mice, L1210 leukemia ip, survival T/C
Experiment: NCI In Vivo Anticancer Drug Screen. Data for tumor model L1210 Leukemia (intraperitoneal) in CD2F1 (CDF1) mice
Details: endpoint: mean survival time; dose: 400.0 mg/kg/injection; schedule: Q01DX001 (ip); vehicle: saline; higher = longer survival
Inconclusive results and toxic doses are left out.

Known results for compounds:
[
  {
    "compound": "Nc1ncnc2c1ncn2C1OCC(O)C(O)C1O (stereo not given)",
    "result": "98 % of control"
  },
  {
    "compound": "O=C(NNCN1C(=O)c2ccccc2C1=O)c1ccccc1",
    "result": "100 % of control"
  },
  {
    "compound": "Oc1c(C(Nc2ccccc2)c2ccccc2)ccc2cccnc12 (stereo not given)",
    "result": "100 % of control"
  },
  {
    "compound": "O=S(O)c1ccccc1",
    "result": "110 % of control"
  },
  {
    "compound": "Cc1ccc(S(=O)(=O)OC2CCSCC2)cc1",
    "result": "94 % of control"
  }
]

Record request: T/C value, item CC[N+]1(CC)N=C([O-])N(C)C1=O 97 % of control

Fill in: T/C of Cc1cc(C)c2c(C#N)cn(-c3ccccc3)c2n1 is ___ 100 % of control

I'd like to know its T/C. The compound in question is CCS(=O)(=O)C1(S(=O)(=O)CC)CCCCC1 102 % of control

Any idea what its T/C is? The compound is CCOC(=O)Nc1ccc(S(=O)(=O)O)cc1 98 % of control

So what's the measured T/C for this one? OCC1OC(Sc2cc(Cl)ccc2Cl)C(O)C(O)C1O (stereo not given) 100 % of control

What does the data say about its T/C? Entry: Cc1cccc(Cl)c1OCC1CO1 (stereo not given) 110 % of control

Record request: T/C value, item CNc1ccc(C(=O)O)cc1C(F)(F)F 102 % of control

What value of T/C has been reported for the following compound? CC(=O)Oc1ccc2c(c1)C(=O)CCCCCC(=O)O2 111 % of control

Dear colleague, I am looking for the recorded T/C of the following compound: O=C1C=C(O)c2cc(Br)ccc2C1=O 98 % of control

----------
T/C reference
Tested on: CD2F1 mice, L1210 leukemia ip, survival T/C
Test: NCI In Vivo Anticancer Drug Screen. Data for tumor model L1210 Leukemia (intraperitoneal) in CD2F1 (CDF1) mice
Settings: endpoint: mean survival time; dose: 50.0 mg/kg/injection; schedule: Q01DX009 (ip); vehicle: saline with Tween-80; higher = longer survival
Inconclusive results and toxic doses are left out.

# example entries with known answers
[
  {
    "compound": "Cc1cc(OCCOC(=O)Nc2c(Cl)cccc2Cl)cc(C)c1Cl",
    "T/C": "92 % of control"
  },
  {
    "compound": "CNC(=O)Oc1coc(CCl)cc1=O",
    "T/C": "107 % of control"
  },
  {
    "compound": "O=C1C=CC(=O)N1c1ccc(Oc2ccc(Cl)cc2)cc1",
    "T/C": "103 % of control"
  },
  {
    "compound": "O=C(O)CSc1nc2ccccc2s1",
    "T/C": "95 % of control"
  },
  {
    "compound": "O=C(OC1C=CC2CCC1C2)c1ccc([N+](=O)[O-])cc1 (configuration not stated)",
    "T/C": "98 % of control"
  },
  {
    "compound": "C[N+](C)(C)CCCCC[N+](C)(C)C",
    "T/C": "108 % of control"
  },
  {
    "compound": "O=C(O)/C(Cl)=C(/Cl)C(Cl)=C(Cl)Cl",
    "T/C": "95 % of control"
  },
  {
    "compound": "Cc1cc(N(C)C)ccc1N=Nc1cc[n+]([O-])c(C)c1",
    "T/C": "108 % of control"
  }
]

So what does the record say about T/C for COc1cc(OC)c(NC(=O)OCCOc2ccc([N+](=O)[O-])cc2)cc1Cl ? 90 % of control

Which T/C is reported for this compound? Cc1ccc(NC(=O)OCCOc2ccc([N+](=O)[O-])cc2)cc1C 108 % of control

Which T/C value is on record for COc1ccc(-c2c(O)c3ccc(OC)cc3oc2=O)cc1 ? 108 % of control

Consider the compound shown here: O=[N+]([O-])c1ccc(-n2[nH]nnc2=S)cc1 What is its recorded T/C? 102 % of control
